Values were extracted from PubChem BioAssay (NCI).

Consider the following compounds and their measured growth readings.
Test system: HCT-15 colon
Assay: NCI-60 one-dose screen, 48 h (100 = growth as untreated, 0 = no growth, -100 = all killed)
Details: 10 µM
The panel holds about 83,000 compounds, 20% with a hit somewhere; the sample as a whole holds those more often.

COMPOUND: COc1ccc(-c2nnc(SC/C(=N\O)c3ccccc3)o2)cc1
TARGET DESC: HCT-15 colon
growth / %: 97.5
--
COMPOUND: C#CCNCCN1C(=O)c2ccc3c4c(ccc(c24)C1=O)C(=O)N(CCNCC#C)C3=O
TARGET DESC: HCT-15 colon
growth / %: 19.5
--
COMPOUND: CNC(=O)c1cc(Oc2ccc(NC(=O)Nc3ccc(Cl)c(OC4CCCCC4)c3)c(F)c2)ccn1
TARGET DESC: HCT-15 colon
growth / %: 37.7
--
COMPOUND: COc1cc2ccnc(C=O)c2cc1OC
TARGET DESC: HCT-15 colon
growth / %: 27.9
--
COMPOUND: N=C(N)c1ccc(-c2ccc(-c3ccccc3)s2)cc1F
TARGET DESC: HCT-15 colon
growth / %: -77.1
--
COMPOUND: COc1cccc2c1C(=O)c1c(O)c3c(c(O)c1C2=O)C[C@@](O)(C(=O)COC(=O)c1ccccc1)C[C@@H]3OC1CC(N)C(O)C(C)O1 (stereo not given in full)
TARGET DESC: HCT-15 colon
growth / %: -72
--
COMPOUND: COc1ccc(-c2[nH]ncc2-c2cc(OC)c(OC)c(OC)c2)cc1
TARGET DESC: HCT-15 colon
growth / %: 10.3
--
COMPOUND: CC[C@@]1(C(N)=O)CC2C=CC1C2 (stereo not given in full)
TARGET DESC: HCT-15 colon
growth / %: 116
--
COMPOUND: COc1cc2c3c(cccc3c1)C(=O)N(CCN1CCCC1)C2=O
TARGET DESC: HCT-15 colon
growth / %: 20.1
--
COMPOUND: C=CCc1cc(Nc2c3ccc(Cl)cc3nc3ccc(OC)cc23)cc(CN(CC)CC)c1O
TARGET DESC: HCT-15 colon
growth / %: 9.53
--
COMPOUND: COC1OC2COC(c3ccccc3)OC2C(=O)C1NC(=O)c1ccccc1 (stereo not given)
TARGET DESC: HCT-15 colon
growth / %: 101
--
COMPOUND: CC1(C)CCc2cc(-c3ccn(S(=O)(=O)c4ccc(Cl)cc4)n3)ccc2O1
TARGET DESC: HCT-15 colon
growth / %: 91.3
--
COMPOUND: CCc1ccc(-c2nnc(COc3ccc(-c4nc5ccccc5[nH]4)cc3OC)o2)cc1
TARGET DESC: HCT-15 colon
growth / %: 52.9
--
COMPOUND: COc1ccc(/C(=C/c2cc(OC)c(OC)cc2[N+](=O)[O-])C(=O)O)cc1
TARGET DESC: HCT-15 colon
growth / %: 107
--
COMPOUND: S=C(Cc1ccc(-c2ccccc2)cc1)N1CCOCC1
TARGET DESC: HCT-15 colon
growth / %: 104
--
COMPOUND: COC(=O)[C@]12CC[C@@H](C)[C@H](C)[C@@H]1C1=CC[C@@H]3[C@@]4(C)CC(=O)[C@H](O)[C@@]5(C)COC(=C45)C[C@@]3(C)[C@]1(C)CC2
TARGET DESC: HCT-15 colon
growth / %: -69.7
--
COMPOUND: FC(F)(F)c1ccc(-c2ncc(-c3ccc(C(F)(F)F)cc3)c(NCc3cc(C(F)(F)F)cc(C(F)(F)F)c3)n2)cc1
TARGET DESC: HCT-15 colon
growth / %: 44.9
--
COMPOUND: CCOC(=O)[C@@H](Cc1ccccc1)NC(=O)c1[nH]c2ccc(Cl)cc2c(=O)c1C
TARGET DESC: HCT-15 colon
growth / %: 40.7
--
COMPOUND: O=C(Cn1ccc(=O)[nH]c1=O)c1ccc([N+](=O)[O-])o1
TARGET DESC: HCT-15 colon
growth / %: 94.7
--
COMPOUND: COc1ccccc1Cn1cc2c(c1-c1ccccc1)CCc1cnoc1-2
TARGET DESC: HCT-15 colon
growth / %: 36

---

Test system: SF-295 CNS
Experiment: NCI-60 one-dose screen, 48 h (100 = growth as untreated, 0 = no growth, -100 = all killed)
Settings: 10 µM
About 83,000 compounds went through this panel and 20% of them were active in at least one assay; those are over-represented in the sample as a whole.
Would you mind labelling by growth? At or over 40% is class 1, under is class 0.

MOLECULE: C/C(=N\NC(=O)c1sc(=S)n(C)c1N)c1cc2ccccc2o1
ASSIGNED CLASS: class 0
//
MOLECULE: COc1cc(OC)cc(-c2ccc(-c3ccc(C(=N)N)cn3)o2)c1
ASSIGNED CLASS: class 0
//
MOLECULE: Cc1noc(C)c1-c1ccc2nc(NC(=O)[C@H]3CCN(C#N)C3)cn2c1
ASSIGNED CLASS: class 1
//
MOLECULE: Nc1c(C(=O)NC2CCCCC2)sc2nc3c(cc12)C(=O)CCC3
ASSIGNED CLASS: class 1
//
MOLECULE: Cc1ccc(Cl)cc1Nc1nc(C(F)(F)F)ccc1C(=O)N/N=C/c1c(Cl)cccc1Cl
ASSIGNED CLASS: class 0
//
MOLECULE: CCCCn1c(=O)[nH]c(N)c(C(c2ccc(Cl)cc2)c2c(N)[nH]c(=O)n(CCCC)c2=O)c1=O
ASSIGNED CLASS: class 0
//
MOLECULE: COc1ccc(-c2nc(SCC(=O)c3ccc(Br)cc3)[nH]c(=O)c2C#N)cc1
ASSIGNED CLASS: class 1
//
MOLECULE: COc1cc(C2C=C(c3ccc(Cl)cc3)N=C3SC(C)=CN32)cc(OC)c1OC (stereo not given)
ASSIGNED CLASS: class 1
//
MOLECULE: COc1ccc(-c2nnc(COc3ccc(NC(=O)Nc4ccccc4)cc3F)o2)cc1
ASSIGNED CLASS: class 1
//
MOLECULE: COc1cc(-c2nc3ccccc3[nH]2)ccc1OCc1nnc(-c2ccc(Br)cc2)o1
ASSIGNED CLASS: class 1
//
MOLECULE: O=C(COc1ccc(-c2nc3ccccc3[nH]2)cc1)N=Nc1c(O)[nH]c2ccccc12
ASSIGNED CLASS: class 1
//
MOLECULE: O=C(OCC1OC(n2cc(C(F)(F)F)c(=O)[nH]c2=O)CC1OC(=O)c1ccc([N+](=O)[O-])cc1)c1ccc([N+](=O)[O-])cc1 (stereo not given)
ASSIGNED CLASS: class 1
//
MOLECULE: CCc1ccc(-c2nnc(COc3ccc(-c4nc5ccccc5[nH]4)cc3OC)o2)cc1
ASSIGNED CLASS: class 1
//
MOLECULE: COc1ccc2nc(C)cc(Nc3ccc(Cl)cc3)c2c1
ASSIGNED CLASS: class 1
//
MOLECULE: CN1/C(=C\C(I)C(I)C2=[N+](C)c3ccccc3C2(C)C)C(C)(C)c2ccccc21 (stereo not given)
ASSIGNED CLASS: class 0
//
MOLECULE: O=C1/C(=C/c2ccc(O)cc2)CSc2ccc(Cl)cc21
ASSIGNED CLASS: class 1
//
MOLECULE: CCOC(=O)Cn1nnc(-c2ccc(OCc3ccccc3F)cc2)n1
ASSIGNED CLASS: class 1
//
MOLECULE: O=C(O)c1ccc(CNc2ccc(C(=O)CCl)cc2)cc1
ASSIGNED CLASS: class 1
//
MOLECULE: COC(=O)c1ccc(Cn2ccc(=O)[nH]c2=O)cc1
ASSIGNED CLASS: class 1
//
MOLECULE: FC(F)(F)c1ccc(-c2cnc(Cl)nc2NC2CCCCCC2)cc1
ASSIGNED CLASS: class 0
//
MOLECULE: NC1CCC(Nc2nc(NCc3ccc(-c4ccco4)nc3)c3ncn(C4CCCC4)c3n2)CC1 (stereo not given)
ASSIGNED CLASS: class 0
//
MOLECULE: O=C(Nc1cccc(C(F)(F)F)c1)C(Cl)Cl
ASSIGNED CLASS: class 1
//
MOLECULE: Oc1[nH]c2ccccc2c1/C=c1/cc2c(c(-c3ccc(C(F)(F)F)cc3)n1)=Nc1ccccc1-2
ASSIGNED CLASS: class 0
//
MOLECULE: COc1ccc(C(=O)n2nc(CC(=O)NCc3ccccc3)nc2N)cc1
ASSIGNED CLASS: class 1
//
MOLECULE: C=CCOc1ccc2c(c1)CC=C1[C@@H]2CC[C@]2(C)C(=O)/C(=N/O)C[C@@H]12
ASSIGNED CLASS: class 1
//
MOLECULE: Cc1nc2sccn2c1-c1csc(Nc2cccc(Cl)c2C)n1
ASSIGNED CLASS: class 0
//
MOLECULE: COc1cc(/C=C/C(=O)c2cc(-c3ccc(F)cc3)ccc2O)cc(OC)c1OC
ASSIGNED CLASS: class 1
//
MOLECULE: COC(=O)C1(C(=O)OC)C2C(=O)C3C(C21)C3(C(=O)OC(C)(C)C)C(=O)OC(C)(C)C (stereo not given)
ASSIGNED CLASS: class 1
//
MOLECULE: CCOC(=O)c1cc2c(n1Cc1cccc(OC)c1)-c1oncc1CC2
ASSIGNED CLASS: class 0
//
MOLECULE: Cc1ccc(-n2c(-c3cc4c([nH]c5ccccc54)c(-c4cccc(O)c4)n3)n[nH]c2=S)cc1
ASSIGNED CLASS: class 0
//
MOLECULE: CN(C)c1ccc2c(c1)OC(N)=C(C#N)C2c1ccc2c(c1)CCCN2C (stereo not given)
ASSIGNED CLASS: class 0
//
MOLECULE: COc1cc(/C=C2\C(=O)Nc3cc(C)c(O)cc32)cc(OC)c1OC
ASSIGNED CLASS: class 1
//
MOLECULE: O=NN(CC(=O)N/N=C/C=C\c1ccccc1)CC(=O)N/N=C/C=C/c1ccccc1
ASSIGNED CLASS: class 1
//
MOLECULE: COc1ccc(C2C=C(c3ccc(OC)c(OC)c3)N=C3SC=CN32)c(Br)c1 (stereo not given)
ASSIGNED CLASS: class 1
//
MOLECULE: Cc1ccc(C)c2c1sc1nc3n[nH]c(N)c3c(=N)n12
ASSIGNED CLASS: class 1
//
MOLECULE: COc1cc(-c2nc3ccc(C)cc3[nH]2)ccc1OCC(=O)N=Nc1c(O)[nH]c2ccccc12
ASSIGNED CLASS: class 0
//
MOLECULE: COc1cc(-c2cc(-c3cc(OC)c(OC)c(OC)c3)nc3nc(N)[nH]c(=O)c23)ccc1Oc1ccnc2cc(Cl)ccc12
ASSIGNED CLASS: class 1
//
MOLECULE: C[C@H](NC(=O)[C@@H]1CSSC[C@@H](NC(=O)Cc2nc3ccccc3cc2O)C(=O)NCC(=O)N1C)c1ccccc1
ASSIGNED CLASS: class 1
//
MOLECULE: Cn1c([N+](=O)[O-])cnc1/C=C1\Oc2ccc(Br)cc2C1=O
ASSIGNED CLASS: class 0
//
MOLECULE: O=C1c2cc(Cl)ccc2-c2c(O)cc(Cl)cc21
ASSIGNED CLASS: class 1
